experimental_protocol: Pharmacokinetic evaluation in rats
Assay type: in vivo
setup_conditions: male, plasma, po; rat, p.o. 100 mg/kg
quantity_name: AUC (µg·h/mL)
Report as a plain number; the unit µg·h/mL is understood.

Please give measured AUC of the following entry: `COc1cc2nccc(Nc3ccc4scnc4c3)c2cc1P(C)(C)=O`
729

###

experimental_protocol: Caco-2 permeability test
Assay type: in vitro ADME
setup_conditions: human, Caco-2, pH 7.4; A-B
quantity_name: Papp A→B at 90 min

Given CP(C)(=O)c1cc2c(Nc3ccc4scnc4c3)ccnc2cc1-c1cnn(C2CCNCC2)c1 [A13] , respond with its Papp A→B at 90 min.
< 0.14 ×10⁻⁶ cm/s

###

experimental_protocol: Pharmacokinetic evaluation in beagle dog
Format: in vivo
setup_conditions: plasma, po, p.o. 15 mg/kg
quantity_name: AUC (ng·h/mL)
Express it in ng·h/mL; write the number only.

Name the recorded AUC of the compound listed here: CP(C)(=O)c1cc2c(Nc3ccc4scnc4c3)ccnc2cc1OC(F)(F)F [A24]
50400

###

experimental_protocol: Caco-2 permeability test
Type: in vitro ADME
setup_conditions: human, Caco-2, pH 7.4; efflux ratio; test at 2 μM; read-out: Caco-2 Permeability B-A/A-B
quantity_name: efflux ratio at 90 min, 2 μM

Fill in efflux ratio at 90 min, 2 μM for record `CP(C)(=O)c1cc2c(Nc3ccc4scnc4c3)ccnc2cc1OC(F)(F)F`
1.58

###

experimental_protocol: Pharmacokinetic evaluation in beagle dog
Type: in vivo
setup_conditions: plasma, po, p.o. 5 mg/kg
quantity_name: AUC (ng·h/mL)
Return type: number; implicit unit ng·h/mL.

>>> print(df.to_string())
                                   compound  meas_value
0  CP(C)(=O)c1cc2c(Nc3ccc4scnc4c3)ccnc2cc1OC(F)(F)F [A24]       40300

Report AUC for COc1cc2nccc(Nc3ccc4scnc4c3)c2cc1P(C)(C)=O [A6]
10800

###

experimental_protocol: Caco-2 permeability test
Format: in vitro ADME
setup_conditions: human, Caco-2, pH 7.4; B-A; test at 2 μM
quantity_name: Papp B→A at 90 min, 2 μM (×10⁻⁶ cm/s)
Give just the numeric value; ×10⁻⁶ cm/s need not be written.

Identify the reported Papp B→A at 90 min, 2 μM for the following entry. `CP(C)(=O)c1cc2c(Nc3ccc4scnc4c3)ccnc2cc1OC(F)(F)F`
26.6

###

experimental_protocol: Thermodynamic solubility test
Assay type: physicochemical
setup_conditions: thermodynamic from solid; FaSSIF pH 6.5, thermodynamic
quantity_name: solubility (mM)
Report as a plain number; the unit mM is understood.

Solved cases (2 shown):
In [3]: df
Out[3]:
                               smiles_input  meas_value
0  COCCOc1cc2nccc(Nc3ccc4scnc4c3)c2cc1P(C)(C)=O        1.04
1  COc1cc2nccc(Nc3ccc4scnc4c3)c2cc1P(C)(C)=O        6.12

Specify measured solubility for `CP(C)(=O)c1cc2c(Nc3ccc4scnc4c3)ccnc2cc1-c1cnn(C2CCNCC2)c1` .
4.33

Give solubility for `CP(C)(=O)c1cc2c(Nc3ccc4scnc4c3)ccnc2cc1OCCO`
5.31

Find the measured solubility of `CC1(COc2cc3nccc(Nc4ccc5scnc5c4)c3cc2P(C)(C)=O)COC1` and report it.
0.283

###

experimental_protocol: Protein binding test (dialysis), human
Type: in vitro ADME
setup_conditions: human plasma, 1 μM
quantity_name: fraction unbound at 5 h, 1 μM
In your answer, state the number alone without any accompanying words.

For orientation, consider the following solved cases.
>>> df
                               smiles_input  meas_value
0  CP(C)(=O)c1cc2c(Nc3ccc4scnc4c3)ccnc2cc1OC(F)(F)F       0.013
1  CP(C)(=O)c1cc2c(Nc3ccc4scnc4c3)ccnc2cc1OC1COC1       0.195
2  CP(C)(=O)c1cc2c(Nc3ccc4scnc4c3)ccnc2cc1O[C@H]1CCOC1       0.177
3  COc1cc2nccc(Nc3ccc4scnc4c3)c2cc1P(C)(C)=O       0.124
4  CP(C)(=O)c1cc2c(Nc3ccc4scnc4c3)ccnc2cc1O[C@@H]1CCOC1       0.188

Turning now to a further record.
Identify measured fraction unbound at 5 h, 1 μM associated with `CP(C)(=O)c1cc2c(Nc3ccc4scnc4c3)ccnc2cc1OC(F)F`
0.032

###

experimental_protocol: Pharmacokinetic evaluation in rats
Assay type: in vivo
setup_conditions: male, plasma, po; rat, p.o. 100 mg/kg
quantity_name: Tmax (h)
State just the number; it will be interpreted in h.

>>> df
                               smiles_input  quantity_name  meas_value
0  COc1cc2nccc(Nc3ccc4scnc4c3)c2cc1P(C)(C)=O           Tmax         4.7

Okay, now this compound:
Quote Tmax reported for `CP(C)(=O)c1cc2c(Nc3ccc4scnc4c3)ccnc2cc1OC(F)(F)F` please.
24

###

Structures can show the parent of a compound that is named as a salt.
Reported pKd for target or system UniProtKB O43353, by entry.
Sequence (O43353 whole entry): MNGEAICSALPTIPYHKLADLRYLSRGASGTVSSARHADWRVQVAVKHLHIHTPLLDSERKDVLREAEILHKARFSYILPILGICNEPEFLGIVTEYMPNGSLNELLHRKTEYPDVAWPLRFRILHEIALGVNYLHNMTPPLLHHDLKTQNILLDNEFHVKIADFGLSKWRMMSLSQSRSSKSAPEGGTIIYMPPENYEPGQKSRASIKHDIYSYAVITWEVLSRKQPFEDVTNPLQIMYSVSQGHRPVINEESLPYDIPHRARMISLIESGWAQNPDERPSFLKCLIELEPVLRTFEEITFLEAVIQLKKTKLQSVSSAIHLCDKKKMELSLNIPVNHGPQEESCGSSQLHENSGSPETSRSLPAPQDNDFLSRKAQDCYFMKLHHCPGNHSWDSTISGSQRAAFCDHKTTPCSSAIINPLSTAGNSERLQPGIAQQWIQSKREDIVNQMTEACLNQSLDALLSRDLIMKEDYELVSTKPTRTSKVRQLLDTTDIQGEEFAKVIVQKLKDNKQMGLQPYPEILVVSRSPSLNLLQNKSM
Please express pKd as -log10 of the molar concentration.

                                   compound       measured_on  meas_value
0  CP(C)(=O)c1cc2c(Nc3ccc4scnc4c3)ccnc2cc1-c1cc[nH]n1  UniProtKB O43353        8.64
1  CP(C)(=O)c1cc2c(Nc3ccc4scnc4c3)ccnc2cc1OC1CCOC1 (stereo not shown)  UniProtKB O43353        8.74
2  CC1(COc2cc3nccc(Nc4ccc5scnc5c4)c3cc2P(C)(C)=O)COC1  UniProtKB O43353        8.68
3  CP(C)(=O)c1ccc2nccc(Nc3ccc4scnc4c3)c2c1 [A1, hydrochloride]  UniProtKB O43353        7.55
4  CP(C)(=O)c1cc2c(Nc3ccc4scnc4c3)ccnc2cc1OC1CCC1  UniProtKB O43353        8.82

Find pKd for `Cc1[nH]nc(Nc2ccnc3ccc(P(C)(C)=O)cc23)c1C` on UniProtKB O43353 and write it down.
7.05

State, for UniProtKB O43353, measured pKd of the compound listed here: `CP(C)(=O)c1cc2c(Nc3ccc4scnc4c3)ccnc2cc1O[C@H]1CCOC1`
8.52

# lookup: UniProtKB O43353 pKd, key = `CP(C)(=O)c1cc2c(Nc3ccc4scnc4c3)ccnc2cc1OCCO`
8.24

Please look at `CP(C)(=O)c1cc2c(Nc3ccc4scnc4c3)ccnc2cc1O[C@@H]1CCOC1` and tell me its recorded pKd on UniProtKB O43353.
8.52

Give pKd only, for `CP(C)(=O)c1cc2c(Nc3ccc4scnc4c3)ccnc2cc1OC1COC1` , using UniProtKB O43353 data.
8.42

###

experimental_protocol: Pharmacokinetic evaluation in rats
Assay type: in vivo
setup_conditions: male, plasma, iv; rat, i.v. 2 mg/kg
Reported Vd values follow for various compounds
Express the result in L/kg but write the number alone.

                                   compound  quantity_name  unit_info  meas_value
0  CP(C)(=O)c1cc2c(Nc3ccc4scnc4c3)ccnc2cc1OC(F)(F)F [A24]             Vd       L/kg        0.19

Would you kindly look at the next entry?
Give me measured Vd, please, for this compound: COc1cc2nccc(Nc3ccc4scnc4c3)c2cc1P(C)(C)=O [A6]
0.6

###

experimental_protocol: Pharmacokinetic evaluation in beagle dog
Type: in vivo
setup_conditions: plasma, po, p.o. 30 mg/kg
quantity_name: AUC
Write down the value, and be sure its unit follows.

Provide AUC value for the following molecule: `COc1cc2nccc(Nc3ccc4scnc4c3)c2cc1P(C)(C)=O`
90.8 µg·h/mL

###

experimental_protocol: Pharmacokinetic evaluation in beagle dog
Format: in vivo
setup_conditions: plasma, po, p.o. 30 mg/kg
quantity_name: Tmax (h)
State just the number; it will be interpreted in h.

Supply Tmax value. Item: `COc1cc2nccc(Nc3ccc4scnc4c3)c2cc1P(C)(C)=O`
2.7

###

experimental_protocol: Pharmacokinetic evaluation in rats
Type: in vivo
setup_conditions: male, plasma, po; rat, p.o. 10 mg/kg
quantity_name: AUC (µg·h/mL)
Enter your answer as a number in µg·h/mL; do not include the unit.

                               smiles_input  quantity_name  unit_info  meas_value
0  COc1cc2nccc(Nc3ccc4scnc4c3)c2cc1P(C)(C)=O            AUC    µg·h/mL        18.8

Now consider a different compound.
Provide AUC value for the following compound: `CP(C)(=O)c1cc2c(Nc3ccc4scnc4c3)ccnc2cc1OC(F)(F)F`
248

###

System: Caco-2
experimental_protocol: Caco-2 permeability test
Assay type: in vitro ADME
setup_conditions: Caco-2
quantity_name: permeability (in words)

>>> print(df.to_string())
                               smiles_input  meas_value
0  CP(C)(=O)c1cc2c(Nc3ccc4scnc4c3)ccnc2cc1O[C@H]1CCOC1    moderate
1  CP(C)(=O)c1cc2c(Nc3ccc4scnc4c3)ccnc2cc1O[C@@H]1CCOC1    moderate
2  CP(C)(=O)c1cc2c(Nc3ccc4scnc4c3)ccnc2cc1OCCO         low
3  CP(C)(=O)c1cc2c(Nc3ccc4scnc4c3)ccnc2cc1OC1COC1         low
4  CC1(COc2cc3nccc(Nc4ccc5scnc5c4)c3cc2P(C)(C)=O)COC1    moderate

Retrieve permeability (in words) measured for `CP(C)(=O)c1cc2c(Nc3ccc4scnc4c3)ccnc2cc1OC(F)(F)F` and print it.
high permeability

Could you please provide reported permeability (in words) for `COc1cc2nccc(Nc3ccc4scnc4c3)c2cc1P(C)(C)=O` ? Thanks!
high permeability

Report measured permeability (in words); entry is `CP(C)(=O)c1cc2c(Nc3ccc4scnc4c3)ccnc2cc1-c1cnn(C2CCNCC2)c1`
low
